details: buffer; pH 7.4; 200.0 µM
Overview of recorded solubility kinetic for various molecules
# output: bare number, implied unit µg/mL

// known answers, use as guide
Problem: Give the measured solubility kinetic of Cc1ccc(N2CC(C(=O)OCC(=O)c3ccc(F)cc3)CC2=O)cc1 (stereo not given) .
Solution: 23.5

Problem: Give the measured solubility kinetic of CCCCCCC(=O)N(O)C1CC(=O)N(c2ccc(Cl)cc2)C1=O (stereo not given) .
Solution: 43.9

Problem: Give the measured solubility kinetic of CCN(CC)CCNC(=O)c1ccc(-n2c(C)cc3c2CCCC3=O)cc1 .
Solution: 33.7

Problem: Give the measured solubility kinetic of CCCOc1ccc(Cc2c(O)nc(N)[nH]c2=O)cc1C .
Solution: 15.6

Problem: Give the measured solubility kinetic of Cc1ccc(NC(=O)CCc2nc3ccccc3s2)c(O)c1 .
Solution: 8.9

Problem: Give the measured solubility kinetic of Cc1ccc(-n2c(=O)[nH]c3c(oc4ccccc43)c2=O)cc1 .
Solution: 38.8

Problem: Give the measured solubility kinetic of Cc1ccc(NC(=O)CC(N)=S)cc1 .
Solution: 30.7

Problem: Give the measured solubility kinetic of Cc1ccc(C)c(C(C)NC(=O)C2CCCC2)c1 (stereo not given) .
Solution: 33.2

---
Problem: Give the measured solubility kinetic of O=C(CCNS(=O)(=O)c1ccc(F)c(Cl)c1)NCc1ccccc1F .
Solution: 27.2

Problem: Give the measured solubility kinetic of CC(=O)N(OCc1ccc(OC(C)C)c(Cl)c1)C(C)=O .
Solution: 38.1

Problem: Give the measured solubility kinetic of COC(=O)c1cc(S(=O)(=O)Nc2cccc(-c3cnco3)c2)oc1C .
Solution: 50.3
